# Tested on: E. coli (Ec)
# assay procedure: Broth microdilution minimum inhibitory concentration (MIC), CLSI
# Assay type: cell-based
# run parameters: Escherichia coli, growth medium supplemented with sodium bicarbonate, read-out: E. coli + bicarb MIC
observation type: MIC

Solved entries:
CC(C)(N)C(=O)N1CCN(C(=O)Nc2ccn(-c3ccc(CN4CC[C@@H]5[C@@H](CN)[C@@H]5C4)cc3)c(=O)n2)CC1 [Compound 72]	< 8 µg/mL
CC(C)(N)C(=O)N1CCN(C(=O)Nc2ccn(-c3ccc(CN4C[C@H](N)C5(CC5)C4)cc3)c(=O)n2)CC1 [Compound 16]	8 to 32 µg/mL
CC(C)(N)C(=O)N1CCN(C(=O)Nc2ccn(-c3ccc(CN4CC5CC5(CN)C4)cc3)c(=O)n2)CC1 (stereo not drawn) [Compound 71]	< 8 µg/mL
NC[C@@H]1[C@H]2CN(CCc3ccc(-n4ccc(NC(=O)N5CC6(CCC6N)C5)nc4=O)cc3)C[C@@H]12 (stereo partly drawn) [Compound 148]	> 32 µg/mL

Using known records, supply MIC for C[C@@H]1CN(C(=O)Nc2ccn(-c3ccc(CN4C[C@@H]5[C@@H](N)[C@@H]5C4)cc3)c(=O)n2)CCN1C(=O)[C@@](C)(N)CO [Compound 45]
< 8 µg/mL

Determine from records and report MIC for N[C@@H]1[C@H]2CN(Cc3ccc(-n4ccc(NC(=O)N5CCC(C6OCCC[C@@H]6N)CC5)nc4=O)cc3)C[C@@H]12 (stereo partly drawn) [Compound 52]
< 8 µg/mL

* * *

# target entity: Rabbit Reticulocyte Lysate (eukaryotic protein synthesis)
# assay procedure: Rabbit reticulocyte lysate luciferase assay (inhibition of eukaryotic protein synthesis)
# Format: biochemical
# run parameters: % inhibition @ 1 μM, read-out: Rabbit reticulocyte IC50 (μM/% inhib.)
observation type: IC50

CC(C)(N)C(=O)N1CCN(C(=O)Nc2ccn(-c3ccc(C[C@H](N)C(=O)N4C[C@@H]5[C@@H](CN)[C@@H]5C4)cc3)c(=O)n2)CC1 [Compound 182]	≥ 1 µM
CCC(Cc1ccc(-n2ccc(NC(=O)N3CCN(C(=O)C(C)(C)N)CC3)nc2=O)cc1)N1C[C@@H]2[C@@H](CNC)[C@@H]2C1 (stereo partly drawn) [Compound 221]	≥ 1 µM

Give measured IC50 for CC(=O)NC[C@@H]1[C@H]2CN(C(C)Cc3ccc(-n4ccc(NC(=O)N5CCN(C(=O)C(C)(C)N)CC5)nc4=O)cc3)C[C@@H]12 (stereo partly drawn) [Compound 212] (Rabbit Reticulocyte Lysate (eukaryotic protein synthesis)).
≥ 1 µM

* * *

Recorded IC50 for the following molecules
# target entity: Rabbit Reticulocyte Lysate (eukaryotic protein synthesis)
# assay procedure: Rabbit reticulocyte lysate luciferase assay (inhibition of eukaryotic protein synthesis)
# Type: biochemical
# run parameters: % inhibition @ 1 μM, read-out: Rabbit reticulocyte IC50 (μM/% inhib.)

CC(C)(N)C(=O)N1CCN(C(=O)Nc2ccn(-c3ccc(C[C@H](N)C(=O)N4CC5CC5(CN)C4)cc3)c(=O)n2)CC1 (stereo partly drawn)	≥ 1 µM

For the molecule NCCC1CN(C(=O)Nc2ccn(-c3ccc(CN4C[C@@H]5[C@@H](N)[C@@H]5C4)cc3)c(=O)n2)C1 , report IC50.
≥ 1 µM

Using known records, supply IC50 for CC(Cc1ccc(-n2ccc(NC(=O)N3CCN(C(=O)C(N)CCCN)CC3)nc2=O)cc1)N1C[C@@H]2[C@@H](CN)[C@@H]2C1 (stereo partly drawn)
≥ 1 µM

* * *

# Tested on: E. coli (Ec)
# assay procedure: Broth microdilution minimum inhibitory concentration (MIC), CLSI
# Format: cell-based
# run parameters: Escherichia coli, growth medium with sodium bicarbonate, read-out: E. coli + bicarb MIC
Known MIC of a selection of molecules

Worked examples, 4 molecules total:
CCC(Cc1ccc(-n2ccc(NC(=O)N3CCN(C(=O)C(C)(C)N)CC3)nc2=O)cc1)N1CC2CCC(N)C2C1 (stereo not drawn) [Compound 217]	< 8 µg/mL
CC(COc1ccc(-n2ccc(NC(=O)N3CCN(C(=O)C(C)(C)N)CC3)nc2=O)cc1)N1CC2CC2(CN)C1 (stereo not drawn) [Compound 189]	< 8 µg/mL
CC(C)N(C(C)Cc1ccc(-n2ccc(NC(=O)N3CCN(C(=O)C(C)(C)N)CC3)nc2=O)cc1)C1CC2(CC(N)C2)C1 (stereo not drawn) [Compound 196]	> 32 µg/mL
CC(Cc1ccc(-n2ccc(NC(=O)N3CCN(C(=O)C(C)(C)N)CC3)nc2=O)cc1)N(CC1CC1)C1CC2(CC(N)C2)C1 (stereo not drawn) [Compound 194]	< 8 µg/mL

Give the measured MIC for CC(C)(N)C(=O)N1CCN(C(=O)Nc2ccn(-c3ccc(C[C@H](N)C(=O)N4C[C@@H]5[C@@H](CN)[C@@H]5C4)cc3)c(=O)n2)CC1 [Compound 182]
> 32 µg/mL

Fill in MIC for record CC(Cc1ccc(-n2ccc(NC(=O)N3CCN(C(=O)C(C)(C)N)CC3)nc2=O)cc1)N1CC2CCC(N)CC2C1 (stereo not drawn) [Compound 215]
< 8 µg/mL

* * *

# Test system: E. coli (Ec)
# assay procedure: Broth microdilution minimum inhibitory concentration (MIC), CLSI
# Assay type: cell-based
# run parameters: Escherichia coli, growth medium supplemented with sodium bicarbonate, read-out: E. coli + bicarb MIC
observation type: MIC

CC(Cc1ccc(-n2ccc(NC(=O)N3CCN(C(=O)C(C)(C)N)CC3)nc2=O)cc1)N1CC2(CC(N)C2)C1 (stereo not drawn)	< 8 µg/mL
C[C@](N)(CO)C(=O)N1CCN(C(=O)Nc2ccn(-c3ccc(CN4C[C@@H]5[C@@H](N)[C@@H]5C4)cc3)c(=O)n2)CC1	< 8 µg/mL

Okay, now this molecule:
Consider the molecule Cc1cc(-n2ccc(NC(=O)N3CCN(C(=O)C(C)(C)N)CC3)nc2=O)ccc1CCN1CC2CC2(CN)C1 (stereo not drawn) . State its measured MIC.
< 8 µg/mL

* * *

# Tested on: E. faecalis (Ef)
# assay procedure: Broth microdilution minimum inhibitory concentration (MIC), CLSI
# Format: cell-based
# run parameters: Enterococcus faecalis, growth medium supplemented with sodium bicarbonate, read-out: Ef + bicarb MIC
Here the recorded MIC is given for each entry.

# return MIC for CC(Cc1ccc(-n2ccc(NC(=O)N3CCN(C(=O)C(C)(C)N)CC3)nc2=O)cc1)N1C[C@@H]2[C@@H](CN)[C@@H]2C1 (stereo partly shown) [Compound 122] , test system: E. faecalis (Ef)
< 8 mg/L

State, for E. faecalis (Ef), measured MIC of the compound listed here: CC(C)(N)C(=O)N1CCN(C(=O)Nc2ccn(-c3ccc(CCN4CCC5CC5(N)C4)c(C(F)(F)F)c3)c(=O)n2)CC1 (stereo not shown) [Compound 103]
8 to 32 mg/L

Quote E. faecalis (Ef) MIC for entry C[C@@](N)(CO)C(=O)N1CCN(C(=O)Nc2ccn(-c3ccc(CCN4CC5CC5(CN)C4)cc3)c(=O)n2)CC1 (stereo partly shown) [Compound 120] .
8 to 32 mg/L

* * *

# Test system: E. coli (Ec)
# assay procedure: Broth microdilution minimum inhibitory concentration (MIC), CLSI
# Type: cell-based
# run parameters: Escherichia coli, growth medium supplemented with sodium bicarbonate, read-out: E. coli + bicarb MIC
Quick reference for MIC among some molecules

Study these solved cases before continuing.
CC(Cc1ccc(-n2ccc(NC(=O)N3CCN(C(=O)C(C)(C)N)CC3)nc2=O)cc1)N1CCC2(CC1)CC(N)C2 (stereo not drawn) [Compound 114]	< 8 µg/mL
COc1cc(-n2ccc(NC(=O)N3CCN(C(=O)C(C)(C)N)CC3)nc2=O)ccc1CCN1CC2CC2(CN)C1 (stereo not drawn) [Compound 133]	< 8 µg/mL
COC[C@@](C)(N)C(=O)N1CCN(C(=O)Nc2ccn(-c3ccc(CN4C[C@@H]5[C@@H](N)[C@@H]5C4)cc3)c(=O)n2)CC1 [Compound 53]	< 8 µg/mL
CC(C)(N)CC(=O)N1CCN(C(=O)Nc2ccn(-c3ccc(CN4C[C@@H]5[C@@H](N)[C@@H]5C4)c(C(F)(F)F)c3)c(=O)n2)CC1 [Compound 9]	> 32 µg/mL

Please give measured MIC of the following entry: CC(C)(N)C(=O)N1CCN(C(=O)Nc2ccn(-c3ccc(CN4C[C@@H]5[C@@H](N)[C@@H]5C4)cc3)c(=O)n2)CC1 [Compound 65]
< 8 µg/mL

Let me know recorded MIC for CC(C)(N)C(=O)N1CCN(C(=O)Nc2ccn(-c3cc(F)c(CN4C[C@@H]5[C@@H](N)[C@@H]5C4)c(F)c3)c(=O)n2)CC1 [Compound 8] , thanks.
> 32 µg/mL

* * *

# Tested on: E. coli (Ec)
# assay procedure: Broth microdilution minimum inhibitory concentration (MIC), CLSI
# Format: cell-based
# run parameters: Escherichia coli, growth medium with sodium bicarbonate, read-out: E. coli + bicarb MIC
# Procedure: A certified BSL-2 laboratory was used for testing. Compounds were evaluated using the broth microdilution minimum inhibitory concentration (MIC) and minimum bactericidal concentration (MBC) assays defined by Clinical and Laboratory Standards Institute (CLSI) in the M26-A guideline against S. aureus (Sa), E. coli (Ec), K. pneumoniae (Kp), A. baumannn (Ab), E. faecalis (Ef) and P. aeruginosa (Pa). […]
observation type: MIC

Reference set, count: 2
CCN(Cc1ccc(-n2ccc(NC(=O)N3CCN(C(=O)C(C)(C)N)CC3)nc2=O)cc1)C12CCC(N)(CC1)C2	< 8 mg/L
CC(Cc1ccc(-n2ccc(NC(=O)N3CCN(C(=O)C(C)(C)N)CC3)nc2=O)cc1)[N+]1(C)C[C@@H]2[C@@H](CN)[C@@H]2C1 (stereo partly drawn)	< 8 mg/L

Supply recorded MIC for CC(C)(N)C(=O)N1CCN(C(=O)Nc2ccn(-c3ccc(CNC45CCC(N)(CC4)CC5)cc3)c(=O)n2)CC1 here.
< 8 mg/L

Name the recorded MIC of the item CNCC(=O)N1CCN(C(=O)Nc2ccn(-c3ccc(CC(C)N4C[C@@H]5[C@@H](CN)[C@@H]5C4)cc3)c(=O)n2)CC1 (stereo partly drawn) in your answer.
< 8 mg/L

Item NCC1CC2(CCN(C(=O)Nc3ccn(-c4ccc(CN5C[C@@H]6[C@@H](N)[C@@H]6C5)cc4)c(=O)n3)CC2)C1 : provide MIC
< 8 mg/L

Tell us which MIC value is on record for CC(Cc1ccc(-n2ccc(NC(=O)N3CCN(C(=O)C4(N)CCC4)CC3)nc2=O)cc1)N1C[C@@H]2[C@@H](CN)[C@@H]2C1 (stereo partly drawn)
8 to 32 mg/L

For the compound CC(Cc1ccc(-n2ccc(NC(=O)N3CCN(C(=O)C(C)(C)N)CC3)nc2=O)cc1)NC1CC2(CC(N)C2)C1 (stereo not drawn) , report MIC.
< 8 mg/L

Report MIC, nothing else, for this compound: CC(Cc1ccc(-n2ccc(NC(=O)N3CCN(C(=O)C(C)(C)N)CC3)nc2=O)cc1)N(C)C12CC(N)(C1)C2 (stereo not drawn)
8 to 32 mg/L

Identify MIC associated with the compound CC(Cc1ccc(-n2ccc(NC(=O)N3CCN(C(=O)[C@@H](N)CCCCN)CC3)nc2=O)cc1)N1C[C@@H]2[C@@H](CN)[C@@H]2C1 (stereo partly drawn)
< 8 mg/L
